Target: FGFR2 (Homo sapiens (Human), UniProt P21802)
Sequence (P21802 22-821): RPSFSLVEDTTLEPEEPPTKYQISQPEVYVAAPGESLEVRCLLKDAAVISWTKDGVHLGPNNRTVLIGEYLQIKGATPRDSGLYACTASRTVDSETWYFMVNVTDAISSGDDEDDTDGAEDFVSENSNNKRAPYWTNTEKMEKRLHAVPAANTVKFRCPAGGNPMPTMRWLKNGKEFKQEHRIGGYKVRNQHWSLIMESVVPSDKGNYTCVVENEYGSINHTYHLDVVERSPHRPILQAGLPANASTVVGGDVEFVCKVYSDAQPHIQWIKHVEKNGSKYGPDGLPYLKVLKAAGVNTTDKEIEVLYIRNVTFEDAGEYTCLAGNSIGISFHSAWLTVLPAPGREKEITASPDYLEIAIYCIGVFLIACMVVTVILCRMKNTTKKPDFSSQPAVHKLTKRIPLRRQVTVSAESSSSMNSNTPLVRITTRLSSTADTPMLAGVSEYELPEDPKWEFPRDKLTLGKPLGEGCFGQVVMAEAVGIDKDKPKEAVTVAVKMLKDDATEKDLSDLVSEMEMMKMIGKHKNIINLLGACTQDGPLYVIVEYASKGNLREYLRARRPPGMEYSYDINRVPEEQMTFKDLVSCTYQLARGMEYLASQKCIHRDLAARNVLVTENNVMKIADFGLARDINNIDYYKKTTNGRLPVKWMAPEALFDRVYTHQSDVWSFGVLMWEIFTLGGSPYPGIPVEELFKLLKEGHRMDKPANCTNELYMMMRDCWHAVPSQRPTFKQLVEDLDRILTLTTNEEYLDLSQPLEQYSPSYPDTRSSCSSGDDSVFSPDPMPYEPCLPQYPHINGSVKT
Assay: Biochemical FGFR2 Caliper assay
pIC50: −log10 of the molar value.

- compound: "C=CC(=O)N1CC(CO)C(c2c(-c3ccc(Oc4cccc(C)n4)cc3)c3c(N)ncnc3n2C)C1 (stereo not shown) [Example 814]"
  pIC50: "> 7.00"
- compound: "C#Cc1cc(C)c(-c2c(-c3ccc(Oc4nccc(C)n4)c(F)c3)c3c(Cl)ncnc3n2C)c(F)n1 [Example 1416]"
  pIC50: "> 7.00"
- compound: "Cn1c(-c2ccc(NC(=O)[C@H]3CN3)cc2)c(-c2ccc(C(=O)N3CCCC3)cc2)c2c(N)ncnc21 (single isomer, unassigned) [Example 900]"
  pIC50: "4.00 to 6.00"
- compound: "C=C(C)C(=O)Nc1ccc(-c2c(C3=CC[C@@H](C(=O)N4CCCC4)C[C@@H]3C)c3c(N)ncnc3n2C)cc1 [Example 937]"
  pIC50: "4.00 to 6.00"
- compound: "C#Cc1ncc(-c2c(-c3ccc(Oc4nccc(C)n4)cc3)c3c(N)ncnc3n2C)cc1C#N [Example 1188]"
  pIC50: "> 7.00"
- compound: "C#Cc1ncc(-c2c(-c3ccc(C(=O)N4CCC[C@@H]4C#C)cc3)c3c(N)ncnc3n2C)c(C)n1 [Example 1182]"
  pIC50: "> 7.00"
- compound: "C=CC(=O)Nc1ccc(-c2c(-c3ccccc3)c3c(C)ncnc3n2C)cc1 [Example 1248]"
  pIC50: "4.00 to 6.00"

###

Target: FGFR2 (Homo sapiens (Human))
Experiment: FGFR2 Biochemical Caliper Assay

- compound: "C=CC(=O)N1CCC(c2c(-c3ccc(C(=O)C4CC4)cc3)c3c(N)ncnc3n2C)C1 (stereo not shown)"
  IC50: "100 to 250 nM"
- compound: "C=CC(=O)N1CCC(c2c(-c3ccc(C(=O)N4CCCC4)cc3)c3c(N)ncnc3n2C)C1 (stereo not shown)"
  IC50: "250 to 1000 nM"
- compound: "C=C(C)C(=O)Nc1ccc(-c2c(-c3ccc(-c4nnn(C)n4)nc3)c3c(N)ncnc3n2C)cc1"
  IC50: "1000 to 100000 nM"
- compound: "C=C(C)C(=O)Nc1ccc(-c2c(-c3ccc(Oc4cccc(C)n4)cc3)c3c(N)ncnc3n2C)c(C)c1"
  IC50: "< 100 nM"
- compound: "C=CC(=O)N1CCC(c2c(-c3ccc(Oc4ccccn4)cc3)c3c(N)ncnc3n2C)CC1"
  IC50: "< 100 nM"
- compound: "C=C(C)C(=O)Nc1ccc(-c2c(-c3ccc(Oc4cccc(C)n4)cc3F)c3c(N)ncnc3n2C)cc1"
  IC50: "< 100 nM"
- compound: "C=C(C)C(=O)Nc1ccc(-c2c(-c3ccc(Oc4nccc(C)n4)c(C)c3)c3c(N)ncnc3n2C)c(F)c1"
  IC50: "< 100 nM"

###

In this section, each of the compounds is paired with its reported IC50.
Target: FGFR2 (Homo sapiens (Human), UniProt P21802)
Test: Biochemical FGFR2 Caliper assay

- compound: "C#Cc1cc(C)c(-c2c(-c3ccc(Oc4nccc(C)n4)cc3F)c3c(N)ncnc3n2C)cn1"
  IC50: "0.25 to 1 µM"
- compound: "CC1=CCN(c2ccc(-c3c(-c4ccc(Oc5nccc(C)n5)cc4)c4c(N)ncnc4n3C)cc2)C1=O [Example 1061]"
  IC50: "< 0.1 µM"
- compound: "Cc1ccnc(Oc2ccc(-c3c([C@H]4CCN(C(=O)CCl)C4)n(C)c4ncnc(N)c34)cc2)n1 (single isomer, unassigned)"
  IC50: "< 0.1 µM"
- compound: "C=C(C)C(=O)Nc1ccc(-c2c(-c3ccc(Oc4nccc(C)n4)cc3)c3c(N)ncnc3n2C)c(Cl)c1F"
  IC50: "1 to 100 µM"
- compound: "C#Cc1cc(C)c(-c2c(C3=CC[C@H](C(=O)N4CCC[C@H]4C#N)CC3)c3c(N)ncnc3n2C)cn1"
  IC50: "< 0.1 µM"
- compound: "C#Cc1ccc(-c2c(C3=CC[C@H](C(=O)N4CCCC4)CC3)c3cncnc3n2C)c(C)n1 (single isomer, unassigned)"
  IC50: "1 to 100 µM"
- compound: "C#Cc1cc2c(cn1)-c1c(-c3ccc(Oc4nccc(C)n4)cc3)c3c(N)ncnc3n1CCC2"
  IC50: "< 0.1 µM"

###

In this section, each of the compounds is paired with its reported pIC50.
Target: FGFR2 (Homo sapiens (Human), UniProt P21802)
Assay: Biochemical FGFR2 Caliper assay
pIC50: −log10 of the molar value.
value-type: pIC50

- compound: "C=CC(=O)N1CC(c2c(-c3ccc(Oc4cccc(C)n4)cc3)c3c(N)ncnc3n2C)C[C@@H]1CO (some centres unmarked) [Example 819]"
  reported: "6.00 to 6.60"
- compound: "C=C(C)C(=O)Nc1cccc(-c2c(-c3ccc(C(=O)NCC4(F)COC4)cc3)c3c(N)ncnc3n2C)c1 [Example 1021]"
  reported: "> 7.00"
- compound: "C#Cc1cc(OC)c(-c2c(-c3ccc(Oc4nccc(C)n4)c(F)c3)c3c(C)ncnc3n2C)c(C)n1 (atropisomer, axis not shown) [Example 1459]"
  reported: "> 7.00"
- compound: "C=C(C)C(=O)Nc1ccc(-c2c(C3=CC[C@H](C(=O)N4CCCCCC4)CC3)c3c(N)ncnc3n2C)cc1 (single isomer, unassigned) [Example 977]"
  reported: "> 7.00"
- compound: "C=CC(=O)N1CC[C@@H](c2c(-c3ccc(Oc4cccc(C)n4)cc3)c3c(N)ncnc3n2C)[C@H]1C (single isomer, unassigned) [Example 940]"
  reported: "4.00 to 6.00"
- compound: "C=C(C)C(=O)Nc1ccc(-c2c(-c3ccc4cnccc4c3)c3c(N)ncnc3n2C)cc1 [Example 1286]"
  reported: "6.00 to 6.60"
- compound: "C=C(C)C(=O)Nc1ccc(-c2c(C3=CC[C@@](C)(C(=O)N4CCCC4)CC3)c3c(N)ncnc3n2C)cc1 [Example 1025]"
  reported: "4.00 to 6.00"
- compound: "C=C(C)C(=O)Nc1ccc(-c2c(-c3cnc(-c4cccc(C)c4)s3)c3c(N)ncnc3n2C)cc1 [Example 1423]"
  reported: "6.00 to 6.60"
- compound: "C#Cc1cnc2cc(-c3c(-c4ccc(Oc5nccc(C)n5)c(F)c4)c4c(N)ncnc4n3C)c(C)cc2n1 [Example 1428]"
  reported: "> 7.00"
- compound: "C=C(C)C(=O)Nc1ccc(-c2c(-c3cnc(-c4cccc(F)c4)s3)c3c(N)ncnc3n2C)cc1 [Example 1421]"
  reported: "6.00 to 6.60"
- compound: "C#Cc1cc(C)c(-c2c(C3=CC[C@H](C(=O)N4CCC[C@@H]4C)CC3)c3c(N)ncnc3n2C)cn1 [Example 1257]"
  reported: "6.00 to 6.60"
- compound: "CC#Cc1ncc(-c2c(-c3ccc(Oc4nccc(C)n4)cc3)c3c(N)ncnc3n2C)c(C)n1 [Example 1162]"
  reported: "> 7.00"
- compound: "C#Cc1cc(C)c(-c2c(C3=CC[C@H](C(=O)N4CCC[C@H]4COC)CC3)c3c(N)ncnc3n2C)cn1 (single isomer, unassigned) [Example 1205]"
  reported: "6.00 to 6.60"
- compound: "C=CC(=O)Nc1ccc(-c2[nH]c3ncnc(C)c3c2-c2ccc(Oc3ccccc3)cc2)cc1 [Example 1254]"
  reported: "4.00 to 6.00"

###

Target: FGFR2 (Homo sapiens (Human))
Assay: Biochemical FGFR2 Caliper assay
value-type: IC50

- compound: "C=CC(=O)Nc1ccc(-c2c(-c3ccc4cc[nH]c4c3)c3c(N)ncnc3n2C)cc1"
  reported: "1 to 100 µM"
- compound: "C=C(C)C(=O)Nc1ccc(-c2c(-c3ccc(-n4cc(C)cn4)cc3)c3c(N)ncnc3n2C)cc1"
  reported: "1 to 100 µM"
- compound: "C#Cc1cc(OC)c(-c2c(-c3ncc(Oc4nccc(C)n4)cc3F)c3c(N)ncnc3n2C)c(C)n1"
  reported: "< 0.1 µM"
- compound: "C=C(C)C(=O)Nc1ccc(-c2c(C3=CC[C@H](C(=O)N4CCCC4)CC3)c3c(N)ncnc3n2C)c(C)c1 (single isomer, unassigned)"
  reported: "0.1 to 0.25 µM"
- compound: "CC1=C[C@@H](C)N(c2ccc(-c3c(-c4ccc(Oc5nccc(C)n5)cc4)c4c(N)ncnc4n3C)cc2)C1=O"
  reported: "0.25 to 1 µM"
- compound: "C=C(C)C(=O)Nc1ccc(-c2c(-c3ccc(Oc4nccc(C)n4)c(F)c3)c3c(O)ncnc3n2C)cc1"
  reported: "< 0.1 µM"
- compound: "C=C(C)C(=O)Nc1ccc(-c2c(-c3ccc(-c4ccn[nH]4)cc3)c3c(N)ncnc3n2C)cc1"
  reported: "1 to 100 µM"
- compound: "C#Cc1ccc(-c2c(-c3ccc(Oc4nccc(C)n4)c(F)c3)c3c(N)ncnc3n2C(C)C)c(C)n1"
  reported: "< 0.1 µM"
- compound: "C#Cc1nc2cc(-c3c(-c4ccc(Oc5nccc(C)n5)c(F)c4)c4c(N)ncnc4n3C)ccc2[nH]1"
  reported: "1 to 100 µM"
- compound: "C=C(C)C(=O)Nc1ccc(-c2c(C3=CC[C@@]4(CC3)Cc3ccc(OC)nc3C4=O)c3c(N)ncnc3n2C)cc1"
  reported: "1 to 100 µM"
- compound: "C#Cc1cc(C)c(-c2c(-c3ccc(Oc4nccc(C)n4)c(F)c3)c3c(Cl)ncnc3n2C)c(F)n1 [Example 1417]"
  reported: "< 0.1 µM"
- compound: "C=C(C)C(=O)Nc1ccc(-c2c(-c3ccc(Oc4cccc(C)n4)cc3)c3c(N)ncnn3c2CN(C)C)cc1"
  reported: "0.25 to 1 µM"
- compound: "C=CC(=O)N1CC(c2c(-c3ccc(Oc4cccc(C)n4)cc3)c3c(N)ncnc3n2C)C[C@@H]1C (stereo partly shown)"
  reported: "< 0.1 µM"
- compound: "C=C(C)C(=O)Nc1ccc(-c2c(C3=CC[C@@H](C(=O)N4CCCC4)CC3)c3c(N)ncnc3n2C)c(C)c1 (single isomer, unassigned)"
  reported: "< 0.1 µM"
- compound: "C=C(C)C(=O)Nc1ccc(-c2c(-c3ccc4ncnn4c3)c3c(N)ncnc3n2C)cc1"
  reported: "1 to 100 µM"
- compound: "C#Cc1ccc(-c2c(-c3ccc(Oc4nccc(C)n4)c(F)c3)c3cncnc3n2C)c(C)n1"
  reported: "< 0.1 µM"
- compound: "C=C(C)C(=O)Nc1ccc(-c2c(-c3ccc(C(=O)NCC(F)(F)F)cc3)c3c(N)ncnn3c2CO)cc1"
  reported: "1 to 100 µM"
- compound: "C=CC(=O)Nc1ccc(-c2cn3ncnc(N)c3c2-c2ccc(C(=O)NCC(F)(F)F)cc2)cc1"
  reported: "< 0.1 µM"
- compound: "C=C(C)C(=O)Nc1ccc(-c2c(C3=CC[C@@H](C(=O)N4CCCC[C@H]4C)CC3)c3c(N)ncnc3n2C)cc1"
  reported: "1 to 100 µM"
- compound: "C#Cc1cc(C)c(-c2c(C3=CC[C@H](C(=O)N4CCC[C@H]4C)CC3)c3c(N)ncnc3n2C)c(F)n1 (atropisomer, axis not shown) [Example 1348]"
  reported: "0.1 to 0.25 µM"
- compound: "Cc1ccnc(Oc2ccc(-c3c(-c4ccc(NC(=O)CCl)cc4)n(C)c4ncnc(N)c34)cc2)n1"
  reported: "0.1 to 0.25 µM"
- compound: "C=CC(=O)N[C@H]1CCc2cc(-c3c(-c4ccc(Oc5nccc(C)n5)cc4)c4c(N)ncnc4n3C)ccc21 (single isomer, unassigned)"
  reported: "0.25 to 1 µM"
- compound: "C#Cc1ncc(-c2ccc(-c3c(-c4ccc(Oc5nccc(C)n5)cc4)c4c(N)ncnc4n3C)cc2)o1"
  reported: "1 to 100 µM"
- compound: "C=C(C)C(=O)Nc1ccc(-c2c(-c3ccc(-c4cccnc4)s3)c3c(N)ncnc3n2C)cc1"
  reported: "1 to 100 µM"
- compound: "C#Cc1cc(C)c(-c2cn3ncnc(N)c3c2-c2ccc(Oc3nccc(C)n3)c(F)c2)cn1"
  reported: "< 0.1 µM"
- compound: "C#Cc1ncc(-c2c(-c3ccc(Oc4nccc(C)n4)c(F)c3)c3c(N)ncnc3n2C)c(C)c1F"
  reported: "< 0.1 µM"
- compound: "C=CC(=O)N[C@H]1CC=C(c2c(-c3ccc(Oc4nccc(C)n4)c(F)c3)c3c(N)ncnc3n2C)CC1"
  reported: "0.25 to 1 µM"
- compound: "C=C(C)C(=O)Nc1ccc(-c2c(C3=CC[C@@H](C(=O)N4CCCC4)CC3)c3c(N)ncnc3n2C)c(F)c1"
  reported: "< 0.1 µM"
